Active and inactive are the calls of the source.
REPORTED_PROPERTY: Kd

Can you look up Kd on Mitogen-activated protein kinase 9 (Homo sapiens, UniProt P45984) for O=C(Nc1ccc(-c2ccnc(Nc3ccc(N4CCOCC4)cc3)n2)cc1)C1CCCN1 (configuration not stated) ?
> 30 µM (inactive)

Can you look up Kd on Mitogen-activated protein kinase 9 (Homo sapiens, UniProt P45984) for CCS(=O)(=O)N1CC(CC#N)(n2cc(-c3ncnc4[nH]ccc34)cn2)C1 ?
> 30 µM (inactive)

Can you look up Kd on Mitogen-activated protein kinase 9 (Homo sapiens, UniProt P45984) for N[C@@H]1CCCN(c2c(/C=C3\SC(=O)NC3=O)cccc2-c2ccccc2)C1 ?
> 30 µM (inactive)

Can you look up Kd on Mitogen-activated protein kinase 9 (Homo sapiens, UniProt P45984) for C=CC(=O)N1CCC(Oc2cc3c(Nc4ccc(Cl)c(Cl)c4F)ncnc3cc2OC)CC1 ?
> 30 µM (inactive)

Can you look up Kd on Mitogen-activated protein kinase 9 (Homo sapiens, UniProt P45984) for CCN1CCN(Cc2ccc(-c3cc4c(N[C@H](C)c5ccccc5)ncnc4[nH]3)cc2)CC1 ?
> 30 µM (inactive)

Can you look up Kd on Mitogen-activated protein kinase 9 (Homo sapiens, UniProt P45984) for CNC(=O)c1cc(Oc2ccc(NC(=O)Nc3ccc(Cl)c(C(F)(F)F)c3)c(F)c2)ccn1 ?
> 30 µM (inactive)

Can you look up Kd on Mitogen-activated protein kinase 9 (Homo sapiens, UniProt P45984) for O=c1sn(-c2cccc3ccccc23)c(=O)n1Cc1ccccc1 ?
> 30 µM (inactive)

Can you look up Kd on Mitogen-activated protein kinase 9 (Homo sapiens, UniProt P45984) for COc1cc(OC)c(/C=C/S(=O)(=O)Cc2ccc(OC)c(NCC(=O)O)c2)c(OC)c1 ?
> 30 µM (inactive)

Can you look up Kd on Mitogen-activated protein kinase 9 (Homo sapiens, UniProt P45984) for Cc1cc([C@@H](C)Nc2ccccc2C(=O)O)c2nc(N3CCOCC3)cc(=O)n2c1 ?
> 30 µM (inactive)

Can you look up Kd on Mitogen-activated protein kinase 9 (Homo sapiens, UniProt P45984) for CN1CC[C@@H](c2c(O)cc(O)c3c(=O)cc(-c4ccccc4Cl)oc23)[C@@H]1CO ?
> 30 µM (inactive)

Can you look up Kd on Mitogen-activated protein kinase 9 (Homo sapiens, UniProt P45984) for COc1ccc(-c2ccc3c(N4CCOC[C@@H]4C)nc(N4CCOC[C@@H]4C)nc3n2)cc1CO ?
> 30 µM (inactive)

Can you look up Kd on Mitogen-activated protein kinase 9 (Homo sapiens, UniProt P45984) for CNC(=O)c1ccc(-c2cnc3ncc(Cc4ccc5ncccc5c4)n3n2)cc1F ?
> 30 µM (inactive)

Can you look up Kd on Mitogen-activated protein kinase 9 (Homo sapiens, UniProt P45984) for C[C@@H](Nc1cc(F)cc(F)c1)c1cc(C(=O)N(C)C)cc2c(=O)cc(N3CCOCC3)oc12 ?
> 30 µM (inactive)

Can you look up Kd on Mitogen-activated protein kinase 9 (Homo sapiens, UniProt P45984) for COc1cc(CCc2cc(NC(=O)c3ccc(N4C[C@@H](C)N[C@@H](C)C4)cc3)n[nH]2)cc(OC)c1 ?
> 30 µM (inactive)

Can you look up Kd on Mitogen-activated protein kinase 9 (Homo sapiens, UniProt P45984) for COc1cc(N2CCC(N3CCN(C)CC3)CC2)ccc1Nc1ncnc(Nc2ccccc2S(=O)(=O)C(C)C)n1 ?
> 30 µM (inactive)

Can you look up Kd on Mitogen-activated protein kinase 9 (Homo sapiens, UniProt P45984) for O=C(O)[C@]1(Cc2cccc(Nc3nccs3)n2)CC[C@@H](Oc2cccc(Cl)c2F)CC1 ?
> 30 µM (inactive)

Can you look up Kd on Mitogen-activated protein kinase 9 (Homo sapiens, UniProt P45984) for CC[C@H](Nc1ncnc2[nH]cnc12)c1nc2cccc(F)c2c(=O)n1-c1ccccc1 ?
> 30 µM (inactive)

---

# TARGET_OF_ASSAY: Protein kinase C alpha type (Homo sapiens); note: in the data inactive means no Kd found up to 30 µM
The source made the active and inactive calls.
REPORTED_PROPERTY: Kd

Which Kd is listed for CC(=O)Nc1cccc(-n2c(=O)n(C3CC3)c(=O)c3c(Nc4ccc(I)cc4F)n(C)c(=O)c(C)c32)c1 ?
> 30 µM (inactive)

Which Kd is listed for CCn1c(=O)c(-c2cc[nH]n2)cc2c(C)nc(N)nc21 ?
> 30 µM (inactive)

Which Kd is listed for O=C(c1ccc(F)c(F)c1Nc1ccc(I)cc1F)N1CC(O)([C@@H]2CCCCN2)C1 ?
> 30 µM (inactive)

Which Kd is listed for Cc1cn(-c2cc(NC(=O)c3ccc(C)c(Nc4nccc(-c5cccnc5)n4)c3)cc(C(F)(F)F)c2)cn1 ?
> 30 µM (inactive)

---

Activity calls are given as the source filed them.
As a worked illustration, we turn to Kd data collected for Chromodomain-helicase-DNA-binding protein 4 (Homo sapiens, UniProt Q14839).

Which Kd is listed for CCCS(=O)(=O)Nc1ccc(F)c(C(=O)c2c[nH]c3ncc(-c4ccc(Cl)cc4)cc23)c1F ?
> 30 µM (inactive)

Which Kd is listed for CCn1c(=O)c(-c2cc[nH]n2)cc2c(C)nc(N)nc21 ?
> 30 µM (inactive)

Which Kd is listed for CO[C@H]1C[C@@H]2CC[C@@H](C)[C@@](O)(O2)C(=O)C(=O)N2CCCC[C@H]2C(=O)O[C@H]([C@H](C)C[C@@H]2CC[C@@H](OCCO)[C@H](OC)C2)CC(=O)[C@H](C)/C=C(\C)[C@@H](O)[C@@H](OC)C(=O)[C@H](C)C[C@H](C)/C=C/C=C/C=C/1C ?
> 30 µM (inactive)

Which Kd is listed for CCn1c(-c2nonc2N)nc2c(C#CC(C)(C)O)ncc(OC[C@H]3CCCNC3)c21 ?
> 30 µM (inactive)

Which Kd is listed for N[C@@H]1CCCN(c2c(/C=C3\SC(=O)NC3=O)cccc2-c2ccccc2)C1 ?
> 30 µM (inactive)

Which Kd is listed for CNC(=O)c1cc(Oc2ccc(NC(=O)Nc3ccc(Cl)c(C(F)(F)F)c3)c(F)c2)ccn1 ?
> 30 µM (inactive)

Which Kd is listed for Cc1cc([C@@H](C)Nc2ccccc2C(=O)O)c2nc(N3CCOCC3)cc(=O)n2c1 ?
> 30 µM (inactive)

Which Kd is listed for O=C(c1ccc(F)c(F)c1Nc1ccc(I)cc1F)N1CC(O)([C@@H]2CCCCN2)C1 ?
> 30 µM (inactive)

Which Kd is listed for COc1cc(OC)c(/C=C/S(=O)(=O)Cc2ccc(OC)c(NCC(=O)O)c2)c(OC)c1 ?
> 30 µM (inactive)

Which Kd is listed for C=CC(=O)N1CCC(Oc2cc3c(Nc4ccc(Cl)c(Cl)c4F)ncnc3cc2OC)CC1 ?
> 30 µM (inactive)

Which Kd is listed for Cc1cc2c(F)c(Oc3ncnn4cc(OC[C@@H](C)OC(=O)[C@H](C)N)c(C)c34)ccc2[nH]1 [BRIVANIB ALANINATE] ?
> 30 µM (inactive)

Which Kd is listed for Cc1cc(-c2cc(O)ccc2Cl)cc2nnc(Nc3ccc(OCCN4CCCC4)cc3)nc12 ?
> 30 µM (inactive)

Which Kd is listed for COc1ccc(-c2ccc3c(N4CCOC[C@@H]4C)nc(N4CCOC[C@@H]4C)nc3n2)cc1CO ?
> 30 µM (inactive)

Which Kd is listed for O=C(Nc1ccc(-c2ccnc(Nc3ccc(N4CCOCC4)cc3)n2)cc1)C1CCCN1 (configuration not stated) ?
> 30 µM (inactive)

Which Kd is listed for Nc1nc(N)c2nc(-c3cccc(O)c3)c(-c3cccc(O)c3)nc2n1 ?
> 30 µM (inactive)

Which Kd is listed for CNC(=O)CN1CCC(Oc2cc3c(Nc4cccc(Cl)c4F)ncnc3cc2OC)CC1 ?
> 30 µM (inactive)

Which Kd is listed for Cc1ccc(S(=O)(=O)Nc2nc3ccccc3nc2Nc2ccc3nsnc3c2)cc1 ?
> 30 µM (inactive)

Which Kd is listed for COc1cc(N2CCC(N3CCN(C)CC3)CC2)ccc1Nc1ncnc(Nc2ccccc2S(=O)(=O)C(C)C)n1 ?
> 30 µM (inactive)

Which Kd is listed for CN1CCN(c2ccc3nc(-c4c(N)c5c(F)cccc5[nH]c4=O)[nH]c3c2)CC1 ?
> 30 µM (inactive)

Which Kd is listed for COCCNCc1ccc(-c2cc3nccc(Oc4ccc(NC(=S)NC(=O)Cc5ccc(F)cc5)cc4F)c3s2)nc1 ?
> 30 µM (inactive)

Which Kd is listed for Cc1c(F)cc(C(=O)NC2CC2)cc1-c1ccc(C(=O)NCC(C)(C)C)cn1 ?
> 30 µM (inactive)

Which Kd is listed for O=c1sn(-c2cccc3ccccc23)c(=O)n1Cc1ccccc1 ?
> 30 µM (inactive)

Which Kd is listed for O=C1NC(=O)/C(=C/c2ccc3nccc(-c4ccncc4)c3c2)S1 ?
> 30 µM (inactive)

Which Kd is listed for CN(C)C(=O)c1cc2cnc(Nc3ccc(N4CCNCC4)cn3)nc2n1C1CCCC1 ?
> 30 µM (inactive)

Which Kd is listed for COC(=O)N[C@@H](C)CNc1nccc(-c2cn(C(C)C)nc2-c2cc(Cl)cc(NS(C)(=O)=O)c2F)n1 ?
> 30 µM (inactive)

Which Kd is listed for Cc1cn(-c2cc(NC(=O)c3ccc(C)c(Nc4nccc(-c5cccnc5)n4)c3)cc(C(F)(F)F)c2)cn1 ?
> 30 µM (inactive)

Which Kd is listed for CCS(=O)(=O)N1CC(CC#N)(n2cc(-c3ncnc4[nH]ccc34)cn2)C1 ?
> 30 µM (inactive)

Which Kd is listed for CN1CCC(CNc2ccc3ncc(-c4cccc(OC(F)(F)F)c4)n3n2)CC1 ?
> 30 µM (inactive)

Which Kd is listed for COc1cc2nccc(Oc3ccc(NC(=O)NC4CC4)c(Cl)c3)c2cc1C(N)=O ?
> 30 µM (inactive)

Which Kd is listed for COc1cc2nccc(Oc3ccc(NC(=O)Nc4cc(C)on4)c(Cl)c3)c2cc1OC ?
> 30 µM (inactive)

Which Kd is listed for CC(C)Nc1cc(-c2c[nH]c(C(=O)N[C@H](CO)c3cccc(Cl)c3)c2)c(Cl)cn1 ?
> 30 µM (inactive)

Which Kd is listed for O=C(Nc1cccc(Cl)c1)Nc1ncc(CCNc2ncnc3ccsc23)s1 ?
> 30 µM (inactive)
